Each recorded value in this set is attributed to the supplement of paper PMC3545927.

# measuredTarget: furin, P09958;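 further: purified furin at 1:10 enzyme:substrate in 50 mM HEPES pH 7.5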
# Sequence (P09958 whole entry): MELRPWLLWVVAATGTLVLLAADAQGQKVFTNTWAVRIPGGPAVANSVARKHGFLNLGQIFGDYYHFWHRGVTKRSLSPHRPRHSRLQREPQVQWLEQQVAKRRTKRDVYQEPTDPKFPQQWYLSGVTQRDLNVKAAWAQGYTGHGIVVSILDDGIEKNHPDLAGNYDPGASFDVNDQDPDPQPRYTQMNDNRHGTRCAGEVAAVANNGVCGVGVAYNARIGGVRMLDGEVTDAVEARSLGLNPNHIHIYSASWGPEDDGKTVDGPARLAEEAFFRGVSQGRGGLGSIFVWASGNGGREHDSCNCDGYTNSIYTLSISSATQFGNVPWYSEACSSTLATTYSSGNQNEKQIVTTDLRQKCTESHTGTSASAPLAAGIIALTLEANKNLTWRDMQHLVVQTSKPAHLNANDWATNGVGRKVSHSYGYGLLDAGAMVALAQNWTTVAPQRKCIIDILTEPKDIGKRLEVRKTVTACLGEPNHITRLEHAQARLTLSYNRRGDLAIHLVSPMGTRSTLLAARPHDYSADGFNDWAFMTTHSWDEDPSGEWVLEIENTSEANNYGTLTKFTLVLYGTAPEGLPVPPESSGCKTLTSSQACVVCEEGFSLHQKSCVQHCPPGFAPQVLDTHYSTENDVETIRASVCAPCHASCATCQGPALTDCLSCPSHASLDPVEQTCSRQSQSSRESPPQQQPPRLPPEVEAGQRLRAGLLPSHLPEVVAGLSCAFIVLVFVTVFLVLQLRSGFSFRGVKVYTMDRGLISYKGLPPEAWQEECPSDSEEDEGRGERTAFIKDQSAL
# experimentNotes: furin cleavage Z-score vs untreated control; higher = more cleavage, active = 3.5 or more, inactive = 1 or less, 8 variable residues between constant flanks
# studyConditions: 15 min
This is one part of the list. How many sequences the whole screen found active is unknown.
Parameter call: string, one of active, inactive

Some entries whose results are on file:
INSERT INTO assay_data (chain, answerlabel) VALUES
  ('CASPQRRRRQAGNASASA [FS-1415]', 'active'),
  ('CANMWRCPRQAGNASASA [FS-181]', 'inactive'),
  ('CAEVVTSNWVAGNASASA [HC2221]', 'inactive'),
  ('CARIKRSAPLAGNASASA [FS-2954]', 'active'),
  ('CANRGIGKRSAGNASASA [FS-65]', 'active');

Ask | Assay result, entry CASTPCSAPLAGNASASA [HC2559] — outcome?
Reply | inactive

Ask | Tell me the recorded outcome of this test for CACLRRRRRQAGNASASA [FS-1623] .
Reply | active

Ask | Record lookup: outcome of this test for CASDVVCCSMAGNASASA [HC2117] ?
Reply | inactive

Ask | Entry CANLMRPKRSAGNASASA [FS-137] : call = ?
Reply | active

Ask | Tell me the assay call for CARIKRSRKLAGNASASA [FS-3156] please.
Reply | active

Ask | I'd appreciate the recorded outcome for CAGSFRGKRSAGNASASA [FS-1206] from this test.
Reply | active

Ask | Check the results log: what was the call for CAIMTCMSADAGNASASA [HC983] ?
Reply | inactive

Ask | Which outcome was assigned to CARKSRWAKLAGNASASA [FS-2982] in this test?
Reply | inactive
